molecular target: AR-V7 (Homo sapiens, UniProt P10275); construct: expressed in transfected cells; host or cells: PC3 cells stably expressing AR-V7-GFP; assay: UBE2C promoter driven luciferase reporter assay in PC3-AR-V7-GFP cells; assay type: cell-based; conditions: constitutive, 24 h; read-out: PC-3-ARV7-GFP UBE2C-Luc Reporter IC50
Sequence (P10275 1-644 isoform P10275-3): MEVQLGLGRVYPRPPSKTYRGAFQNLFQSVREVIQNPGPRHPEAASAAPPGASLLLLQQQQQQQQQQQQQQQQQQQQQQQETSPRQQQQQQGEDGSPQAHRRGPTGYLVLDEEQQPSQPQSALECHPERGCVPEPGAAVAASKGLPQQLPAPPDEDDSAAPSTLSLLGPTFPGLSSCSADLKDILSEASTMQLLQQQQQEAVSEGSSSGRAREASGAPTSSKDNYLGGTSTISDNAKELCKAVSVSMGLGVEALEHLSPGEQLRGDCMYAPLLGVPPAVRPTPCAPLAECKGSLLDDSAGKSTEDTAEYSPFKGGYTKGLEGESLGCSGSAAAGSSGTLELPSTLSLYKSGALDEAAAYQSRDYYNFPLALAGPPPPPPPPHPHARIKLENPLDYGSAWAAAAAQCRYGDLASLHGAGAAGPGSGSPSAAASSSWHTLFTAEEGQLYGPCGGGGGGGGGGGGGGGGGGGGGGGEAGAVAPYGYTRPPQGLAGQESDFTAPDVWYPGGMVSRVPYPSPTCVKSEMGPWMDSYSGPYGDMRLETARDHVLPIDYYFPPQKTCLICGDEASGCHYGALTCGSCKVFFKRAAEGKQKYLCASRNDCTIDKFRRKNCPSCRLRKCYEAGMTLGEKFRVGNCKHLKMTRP
Output true for records whose IC50 is lower than 20 µM, false for records at or above 20 µM.

Consider the compound Cc1c(-c2ccc(F)cc2)[nH]c2ccc(CNC(=O)c3ccc(CO)o3)cc12 [S3–15] . Is its IC50 strictly less than 20 µM?
true

Does the reported IC50 of Cc1ccccc1-c1cc(O)c2c(c1)CN(c1nc(C(N)=O)cs1)CCO2 [S1–1] stay below 20 µM?
false

Regarding Cc1c(-c2ccccc2F)[nH]c2ccc(CNC(=O)CCc3cnccn3)cc12 [S3–12] , kindly confirm whether its IC50 is beneath 20 µM.
true

Lab log: compare recorded IC50 with 20 µM; is it strictly lower for Cc1nsc(NC(=O)N2CCC(Sc3ccccc3C)CC2)n1 [S2–6] ?
true

A record lists Cc1c(-c2ccccc2F)[nH]c2ccc(CNC(=O)CCc3cn[nH]c3)cc12 [S3–11] . Is its IC50 below 20 µM?
false

Check if IC50 falls below 20 µM for Cc1c(-c2ccccc2F)[nH]c2ccc(CNC(=O)c3ccc(CO)o3)cc12 [S3–14] .
false
